# TARGET_UNDER_TEST: mouse TMEM16A mutant V511A (Mus musculus, UniProt Q8BHY3, V511A)
# Construct: expressed in transfected cells; host or cells: HEK293T
# Sequence (Q8BHY3 1-960 V511A): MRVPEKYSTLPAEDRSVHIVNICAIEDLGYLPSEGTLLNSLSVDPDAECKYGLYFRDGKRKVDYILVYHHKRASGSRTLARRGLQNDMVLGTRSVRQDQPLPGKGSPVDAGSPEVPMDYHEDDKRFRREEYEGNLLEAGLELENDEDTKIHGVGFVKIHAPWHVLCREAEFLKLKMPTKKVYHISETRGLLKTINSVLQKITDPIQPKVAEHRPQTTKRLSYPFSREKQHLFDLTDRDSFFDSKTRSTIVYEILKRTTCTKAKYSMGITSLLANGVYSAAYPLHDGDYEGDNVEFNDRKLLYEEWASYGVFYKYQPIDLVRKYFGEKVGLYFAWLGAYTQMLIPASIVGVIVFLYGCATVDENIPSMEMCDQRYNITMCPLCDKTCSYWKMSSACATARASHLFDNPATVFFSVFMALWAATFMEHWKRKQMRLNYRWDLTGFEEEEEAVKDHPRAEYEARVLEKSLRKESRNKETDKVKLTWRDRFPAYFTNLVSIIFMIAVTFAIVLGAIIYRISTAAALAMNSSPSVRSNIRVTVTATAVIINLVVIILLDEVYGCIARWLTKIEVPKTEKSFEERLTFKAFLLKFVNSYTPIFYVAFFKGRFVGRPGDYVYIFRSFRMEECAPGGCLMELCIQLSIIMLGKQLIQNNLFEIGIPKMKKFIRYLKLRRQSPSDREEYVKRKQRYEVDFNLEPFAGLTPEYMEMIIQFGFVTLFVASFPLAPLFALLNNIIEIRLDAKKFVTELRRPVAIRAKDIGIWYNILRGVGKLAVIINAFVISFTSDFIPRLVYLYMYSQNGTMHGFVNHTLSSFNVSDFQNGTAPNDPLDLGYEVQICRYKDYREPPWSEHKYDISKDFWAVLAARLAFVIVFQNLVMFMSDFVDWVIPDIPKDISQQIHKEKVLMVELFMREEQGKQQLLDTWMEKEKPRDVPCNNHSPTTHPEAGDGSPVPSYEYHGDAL
# RUN_DESCRIPTION: Inside-out patch recording of 1PBC block, mutant V511A
# Type: cell-based
# RECORDED_CONDITIONS: -80 mV; 2 µM Ca2+
MEASUREMENT_LABEL: IC50
I'd appreciate it if you included the unit after the number.

Can you look up the measured IC50 of N#Cc1c(C(F)(F)F)cc(O)n2c1nc1ccccc12 for me?
52.4 µM

----------
# TARGET_UNDER_TEST: mouse TMEM16A mutant Y598A (Mus musculus, UniProt Q8BHY3, Y598A)
# Construct: expressed in transfected cells; host or cells: HEK293T
# RUN_DESCRIPTION: Inside-out patch recording of 1PBC block, mutant Y598A
# Format: cell-based
# RECORDED_CONDITIONS: -40 mV; 2 µM Ca2+
MEASUREMENT_LABEL: pIC50
Keep in mind that pIC50 stands for -log10 of concentration in molar terms.

// fetch mouse TMEM16A mutant Y598A (Mus musculus, UniProt Q8BHY3, Y598A) pIC50 for N#Cc1c(C(F)(F)F)cc(O)n2c1nc1ccccc12
5.15

----------
# TARGET_UNDER_TEST: mouse TMEM16A mutant I636A (Mus musculus, UniProt Q8BHY3, I636A)
# Construct: expressed in transfected cells; host or cells: HEK293T
# RUN_DESCRIPTION: Inside-out patch recording of 1PBC block, mutant I636A
# Type: cell-based
# RECORDED_CONDITIONS: I636A; V -60 mV
MEASUREMENT_LABEL: pIC50
pIC50 here: minus log base 10 of the concentration, concentration in moles per litre.

Which pIC50 value is on record for N#Cc1c(C(F)(F)F)cc(O)n2c1nc1ccccc12 ?
4.90

----------
# TARGET_UNDER_TEST: mouse TMEM16A mutant I512A (Mus musculus, UniProt Q8BHY3, I512A)
# Construct: expressed in transfected cells; host or cells: HEK293T
# RUN_DESCRIPTION: Inside-out patch recording of 1PBC block, mutant I512A
# Type: cell-based
# RECORDED_CONDITIONS: I512A; V 0 mV
MEASUREMENT_LABEL: pIC50
Scale explanation: pIC50 corresponds to minus log10 of a concentration expressed in moles per litre.

For the compound N#Cc1c(C(F)(F)F)cc(O)n2c1nc1ccccc12 , what pIC50 is on record?
4.51

----------
# TARGET_UNDER_TEST: mouse TMEM16A mutant G510P (Mus musculus, UniProt Q8BHY3, G510P)
# Construct: expressed in transfected cells; host or cells: HEK293T
# RUN_DESCRIPTION: Inside-out patch recording of 1PBC block, mutant G510P
# Type: cell-based
# RECORDED_CONDITIONS: G510P; V -80 mV
MEASUREMENT_LABEL: IC50
Field: value (include unit after the number)

// lookup IC50 for N#Cc1c(C(F)(F)F)cc(O)n2c1nc1ccccc12
83.4 µM

----------
# TARGET_UNDER_TEST: mouse TMEM16A mutant V511A (Mus musculus, UniProt Q8BHY3, V511A)
# Construct: expressed in transfected cells; host or cells: HEK293T
# Sequence (Q8BHY3 1-960 V511A): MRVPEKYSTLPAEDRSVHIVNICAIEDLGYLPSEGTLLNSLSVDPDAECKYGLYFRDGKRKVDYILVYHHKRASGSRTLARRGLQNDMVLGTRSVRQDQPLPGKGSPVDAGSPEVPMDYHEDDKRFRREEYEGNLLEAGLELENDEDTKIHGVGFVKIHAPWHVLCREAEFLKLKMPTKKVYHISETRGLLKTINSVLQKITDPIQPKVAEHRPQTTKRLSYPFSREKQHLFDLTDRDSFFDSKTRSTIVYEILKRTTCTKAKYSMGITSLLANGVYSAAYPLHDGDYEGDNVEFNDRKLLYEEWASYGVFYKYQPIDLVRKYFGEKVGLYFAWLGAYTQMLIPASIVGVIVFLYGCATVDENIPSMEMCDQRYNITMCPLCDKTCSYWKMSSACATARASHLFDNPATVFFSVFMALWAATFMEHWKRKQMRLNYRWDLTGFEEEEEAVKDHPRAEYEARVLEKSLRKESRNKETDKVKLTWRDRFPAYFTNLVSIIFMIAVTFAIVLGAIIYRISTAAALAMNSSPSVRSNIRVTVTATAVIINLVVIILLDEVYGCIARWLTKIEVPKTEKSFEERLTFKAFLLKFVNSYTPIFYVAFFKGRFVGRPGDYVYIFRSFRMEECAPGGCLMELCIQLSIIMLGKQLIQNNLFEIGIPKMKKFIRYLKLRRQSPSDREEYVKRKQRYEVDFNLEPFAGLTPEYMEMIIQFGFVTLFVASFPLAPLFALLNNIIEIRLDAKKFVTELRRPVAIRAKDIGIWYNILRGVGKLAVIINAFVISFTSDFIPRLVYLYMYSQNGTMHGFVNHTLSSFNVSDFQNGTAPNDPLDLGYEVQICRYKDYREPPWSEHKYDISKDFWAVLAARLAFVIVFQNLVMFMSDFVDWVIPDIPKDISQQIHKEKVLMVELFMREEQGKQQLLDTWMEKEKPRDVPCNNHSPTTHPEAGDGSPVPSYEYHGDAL
# RUN_DESCRIPTION: Inside-out patch recording of 1PBC block, mutant V511A
# Format: cell-based
# RECORDED_CONDITIONS: 80 mV; 2 µM Ca2+
MEASUREMENT_LABEL: pIC50
Value format note: pIC50 is -log10 of concentration (mol/L); just state the number.

What does the record list as pIC50 for N#Cc1c(C(F)(F)F)cc(O)n2c1nc1ccccc12 ?
5.06

----------
# TARGET_UNDER_TEST: mouse TMEM16A mutant R535A (Mus musculus, UniProt Q8BHY3, R535A)
# Construct: expressed in transfected cells; host or cells: HEK293T
# RUN_DESCRIPTION: Inside-out patch recording of 1PBC block, mutant R535A
# Format: cell-based
# RECORDED_CONDITIONS: R535A; V -100 mV
MEASUREMENT_LABEL: IC50 (µM)
Write the number in µM without appending the unit.

# IC50 lookup, item N#Cc1c(C(F)(F)F)cc(O)n2c1nc1ccccc12 [1PBC]
30.1

----------
# TARGET_UNDER_TEST: mouse TMEM16A mutant V599A (Mus musculus, UniProt Q8BHY3, V599A)
# Construct: expressed in transfected cells; host or cells: HEK293T
# Sequence (Q8BHY3 1-960 V599A): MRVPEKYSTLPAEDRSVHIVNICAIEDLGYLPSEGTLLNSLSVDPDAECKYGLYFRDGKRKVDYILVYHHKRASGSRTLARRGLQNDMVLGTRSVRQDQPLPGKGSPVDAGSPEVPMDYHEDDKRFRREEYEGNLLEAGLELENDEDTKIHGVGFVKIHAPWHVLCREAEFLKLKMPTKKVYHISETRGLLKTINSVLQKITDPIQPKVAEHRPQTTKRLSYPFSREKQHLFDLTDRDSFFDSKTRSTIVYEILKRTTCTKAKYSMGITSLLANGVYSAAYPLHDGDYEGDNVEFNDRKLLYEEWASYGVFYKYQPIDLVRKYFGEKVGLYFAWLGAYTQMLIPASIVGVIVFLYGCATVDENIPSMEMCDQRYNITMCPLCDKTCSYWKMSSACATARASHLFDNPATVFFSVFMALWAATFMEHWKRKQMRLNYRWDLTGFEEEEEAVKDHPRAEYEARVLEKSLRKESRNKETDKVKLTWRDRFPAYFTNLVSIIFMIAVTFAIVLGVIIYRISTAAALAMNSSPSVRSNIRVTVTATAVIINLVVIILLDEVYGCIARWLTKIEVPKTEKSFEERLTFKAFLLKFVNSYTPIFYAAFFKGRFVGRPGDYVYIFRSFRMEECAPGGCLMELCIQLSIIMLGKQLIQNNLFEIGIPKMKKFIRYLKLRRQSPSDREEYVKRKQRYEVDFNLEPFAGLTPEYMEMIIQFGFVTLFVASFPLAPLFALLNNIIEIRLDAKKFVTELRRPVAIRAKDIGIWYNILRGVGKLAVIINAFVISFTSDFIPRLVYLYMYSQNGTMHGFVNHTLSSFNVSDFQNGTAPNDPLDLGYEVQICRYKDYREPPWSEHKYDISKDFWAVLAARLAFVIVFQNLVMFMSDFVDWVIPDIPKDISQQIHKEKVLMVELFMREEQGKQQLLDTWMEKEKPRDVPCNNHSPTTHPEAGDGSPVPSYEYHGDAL
# RUN_DESCRIPTION: Inside-out patch recording of 1PBC block, mutant V599A
# Assay type: cell-based
# RECORDED_CONDITIONS: -120 mV; 15 µM Ca2+
# Procedure: HEK293T cells (ATCC CRL-1573) were maintained in Dulbecco’s modified Eagle’s medium (DMEM; Sigma-Aldrich) supplemented with 10 U ml^−1 penicillin, 0.1 mg ml^−1 streptomycin (Sigma-Aldrich), 2 mM L-glutamine (Sigma-Aldrich), and 10% FBS (Sigma-Aldrich) in a humidified atmosphere containing 5% CO2 at 37 °C. […]
MEASUREMENT_LABEL: pIC50
For clarity, pIC50 is expressed as the negative log10 of concentration in mol/L.

What pIC50 value was documented for this compound, N#Cc1c(C(F)(F)F)cc(O)n2c1nc1ccccc12 ?
3.94
